Collected Inhibition level, DAPK2 values appear next to each entry.
- target.or.test.system: plurality of kinases (Table 5) (Homo sapiens, UniProt Q9UIK4)
- Sequence (Q9UIK4 whole entry): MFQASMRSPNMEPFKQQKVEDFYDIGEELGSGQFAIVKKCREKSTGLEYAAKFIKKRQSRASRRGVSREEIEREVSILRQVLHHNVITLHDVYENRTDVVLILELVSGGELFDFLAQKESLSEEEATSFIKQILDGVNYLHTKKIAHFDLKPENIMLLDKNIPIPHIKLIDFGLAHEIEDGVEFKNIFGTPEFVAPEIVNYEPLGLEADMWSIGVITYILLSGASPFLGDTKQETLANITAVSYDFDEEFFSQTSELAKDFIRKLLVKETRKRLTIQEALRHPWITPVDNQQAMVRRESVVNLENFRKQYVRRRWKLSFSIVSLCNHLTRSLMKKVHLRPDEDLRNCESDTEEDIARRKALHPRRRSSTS
- procedure.details: Further analysis of a plurality of inhibitors and a plurality of kinases on microarray (Example IX, Table 5);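 note: inhibition of each kinase by the inhibitors is given as a qualitative level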;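 note: level 0 no or unclear inhibition to Level 2 substantial inhibition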
- Assay type: biochemical
- condition: plate H3; inhibitor 100 uM
readout.name: Inhibition level, DAPK2

>>> measured_number("O=c1c(O)c(-c2ccc(O)c(O)c2)oc2cc(O)cc(O)c12")
0
>>> measured_number("COc1cc2ncnc(Nc3cccc(Cl)c3)c2cc1OC")
0
>>> measured_number("O=c1c(-c2ccc(O)cc2)coc2cc(O)cc(O)c12")
2
>>> measured_number("O=S(=O)(NCCNC/C=C/c1ccc(Br)cc1)c1cccc2cnccc12")
2

// provenance: patent US7635572B2
